Measured On: angiotensin receptors in human synovium (Homo sapiens, UniProt P30556)
Construct: Human knee synovium was collected at surgery from patients with osteoarthritis or rheumatoid arthritis; from tissue; host or cells: human knee synovium cryostat sections (osteoarthritis, rheumatoid arthritis, chondromalacia patellae)
Sequence (P30556 1-359): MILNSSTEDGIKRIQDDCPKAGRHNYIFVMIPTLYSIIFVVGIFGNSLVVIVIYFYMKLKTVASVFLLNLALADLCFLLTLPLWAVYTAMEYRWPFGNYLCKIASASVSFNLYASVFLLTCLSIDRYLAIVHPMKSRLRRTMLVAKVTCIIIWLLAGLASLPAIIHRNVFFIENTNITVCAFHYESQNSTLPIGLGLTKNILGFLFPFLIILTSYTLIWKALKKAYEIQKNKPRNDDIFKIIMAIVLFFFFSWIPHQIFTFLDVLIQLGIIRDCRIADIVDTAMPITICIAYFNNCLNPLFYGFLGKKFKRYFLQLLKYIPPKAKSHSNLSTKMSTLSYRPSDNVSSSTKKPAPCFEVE
Protocol: Inhibition of [125I](Sar1, Ile8)AII binding to human synovium, quantitative receptor autoradiography
Conditions: blood vessels, osteoarthritic synovium, 0.25 nM [125I](Sar1, Ile8)AII; read-out: Ki values
Property: pKi
Scale: pKi equals -log10([C]), with [C] in mol/L.

The measured pKi associated with CCCCc1ncc(/C=C(\Cc2cccs2)C(=O)O)n1Cc1ccc(C(=O)O)cc1 reads 7.31
